B1: CPEB3 Ribozyme (parent)
chain: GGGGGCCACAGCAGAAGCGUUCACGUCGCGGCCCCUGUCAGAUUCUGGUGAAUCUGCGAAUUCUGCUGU

Variants of: B1
Assay: self-cleavage, relative activity (ratio to wild type); higher = more cleavage; co-transcriptional
Decide by self-cleavage: equal to or exceeding 0.3 means criterion met, less means criterion not met.

Record excerpt, results attached:
- Residue string: "GGGGGCCACAGCAGAAGCGUUCACGUCGCGGUCCCUGUCAGAUUCUGGUGAAUCUGCGAAUUCUGCUGC [C32U U69C]"
  Label class: "criterion met"
- Residue string: "GGGGGCCACAGCAGAAGCGUUAACGUCGCGGCCCCAGUCAGAUUCUGGUGAAUCUGCGAAUUCUGCUGU [C22A U36A]"
  Label class: "criterion not met"
- Residue string: "GGGGGCCACAGCACAAGCGUUCACGUCGCGGCCCCUGUCAGAUUCUGGUGAAUCUGCGAAUUCUGCAGU [G14C U67A]"
  Label class: "criterion met"

(Q) Is it the case that GGGGGCCACAGCAGAAGCGUUCACGUCGCGGCCCCUGUCAGAUUCUGAUGAAUCUGCGAAUUCUGGUGU [G48A C66G] has self-cleavage reaching or exceeding 0.3?
(A) criterion met

(Q) Has GGGGGCCACAGCAGAAACGUUCACGUCGCGGCCCCUGUCAGAUUCUGGAGAAUCUGCGAAUUCUGCUGU [G17A U49A] a recorded self-cleavage greater than or equal to 0.3?
(A) criterion met

(Q) Does the reported self-cleavage for GGGGGCCACAGCAGAAGCGUUCACGUCGCGACCCCUGUUAGAUUCUGGUGAAUCUGCGAAUUCUGCUGU [G31A C39U] fall at or above the 0.3 mark?
(A) criterion met

(Q) Quick check, self-cleavage >= 0.3? GGGGGCCACAGCAGAAGCGUUCACGUCGCGGCCCCUGUCAGAUUCUGGUGUAUCUGCGAAUUCUACUGU [A51U G65A]
(A) criterion met

(Q) Would you say GGGGGCCACAGCAGAAGCGUUCACCUCGCGUCCCCUGUCAGAUUCUGGUGAAUCUGCGAAUUCUGCUGU [G25C G31U] shows self-cleavage at minimum 0.3?
(A) criterion not met

Source: the RNAGym collection of RNA variant scans (doi:10.7554/elife.80360)
